Assay Explanation: Displacement of methyl green from DNA (unknown origin) after 24 hrs
compounds and their reported log10 of IC50
Scale: decimal log of IC50, IC50 in µg/mL.

Examples from the recorded data:
• CCSc1nc(N)c2c(-c3ccc(Cl)cc3)c3c(nc2n1)C(C)CCC3 (stereo not given) = -0.90
• CC1CCCc2c1nc1[nH]c(=S)n(-c3ccccc3)c(=N)c1c2-c1ccc(Cl)cc1 (stereo not given) = -1.01
• CC[n+]1c(-c2ccccc2)c2cc(N)ccc2c2ccc(N)cc21.[Br-] [HOMIDIUM BROMIDE] = -2.40
• CC1CCCc2c1nc1[nH]c(=S)nc(N)c1c2-c1ccc(Cl)cc1 (stereo not given) = -0.82

Pending compound:
### Prompt # input compound: CC1CCCc2c1nc1nc(SCC(=O)c3ccccc3)nc(N)c1c2-c1ccc(Cl)cc1 (stereo not given) ; wanted: its log10 of IC50
### Response -1.21
